Assay: qHTS RealTime-Glo MT Cell Viability Assay in HEK293 cells - 16 hour (AID 1224872); also: top concentration of the series differs between compounds; nearly all actives have a fitted effect of over 50% in size
Conditions: RealTime-Glo luminescence; series mostly up to 76.8 µM
Results filed as inconclusive are left out. Calls of active or inactive are those of the source. Calls follow the shape of the dose curve; as a rule, active = well fitted cell-killing curve with a large enough effect in the repeat runs; inconclusive = weak or mixed curves, or effect the other way; inactive = flat fitted curve, though single readings scatter.

SAMPLE_SMILES	outcome
ClC(Cl)(Cl)Cl	inactive
COC(=O)c1ccccc1CS(=O)(=O)NC(=O)Nc1nc(OC)cc(OC)n1	inactive
CC(C)(N)Cc1ccccc1Cl	inactive

---

Target: Estrogen receptor (Homo sapiens) (UniProt P03372)
Sequence (P03372 whole entry, looked up): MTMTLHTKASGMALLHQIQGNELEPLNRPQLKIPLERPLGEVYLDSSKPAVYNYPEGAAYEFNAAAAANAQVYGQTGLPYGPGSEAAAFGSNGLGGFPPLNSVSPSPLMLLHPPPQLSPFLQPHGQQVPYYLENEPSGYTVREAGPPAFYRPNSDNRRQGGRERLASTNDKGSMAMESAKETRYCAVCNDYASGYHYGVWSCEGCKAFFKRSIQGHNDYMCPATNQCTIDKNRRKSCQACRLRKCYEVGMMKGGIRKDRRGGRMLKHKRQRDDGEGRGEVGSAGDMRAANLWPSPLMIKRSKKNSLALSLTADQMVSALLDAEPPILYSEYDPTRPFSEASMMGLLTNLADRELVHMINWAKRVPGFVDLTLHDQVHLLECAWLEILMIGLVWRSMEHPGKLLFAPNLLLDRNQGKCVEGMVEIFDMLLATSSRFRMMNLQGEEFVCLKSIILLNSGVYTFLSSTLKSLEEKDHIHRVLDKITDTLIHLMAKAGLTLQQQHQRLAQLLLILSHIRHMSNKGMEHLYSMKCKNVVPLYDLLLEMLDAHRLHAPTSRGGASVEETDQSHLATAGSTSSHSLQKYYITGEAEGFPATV
Test: qHTS assay to identify small molecule agonists of the estrogen receptor alpha (ER-alpha) signaling pathway in the presence of an antagonist (AID 1259383); also: nearly all actives have a fitted effect of over 15% in size
Conditions: VM7Luc4E2 cells, ERE-luciferase, +ICI-182,780, 22 h; series mostly up to 92.4 µM
Activity calls are given as the source filed them. Calls follow the shape of the full dose curve.
The reply should name one outcome from label 1 = active, label 0 = inactive

For orientation, consider the following solved cases.
COMPOUND	MEASURED_ON	CLASS_NAME
NC(=O)CS(=O)C(c1ccccc1)c1ccccc1 (stereo not given)	Estrogen receptor (Homo sapiens) (UniProt P03372)	label 0
CCOC1Oc2ccc(OS(C)(=O)=O)cc2C1(C)C (stereo not given)	Estrogen receptor (Homo sapiens) (UniProt P03372)	label 0
OP(O)c1ccccc1	Estrogen receptor (Homo sapiens) (UniProt P03372)	label 0
CNC(=O)Oc1ccccc1C(C)C	Estrogen receptor (Homo sapiens) (UniProt P03372)	label 0
CCCN1CCC[C@@H]2Cc3nc(N)ncc3C[C@H]21	Estrogen receptor (Homo sapiens) (UniProt P03372)	label 0
N=C(N)[Se]	Estrogen receptor (Homo sapiens) (UniProt P03372)	label 0

How was COc1cccc(C=O)c1 classified in this test? label 0

Let us now turn to ClC(Cl)(Cl)Cl label 0

Let us now turn to CC1N=C(N)OC1c1ccccc1 (stereo not given) label 0

Cool, now Cn1c(N)nc2c3cccnc3ccc21 label 0

Also CCOC(=O)CC(SP(=S)(OC)OC)C(=O)OCC (stereo not given) , if possible. label 0

Please do the same for CCNc1nc(NCC)nc(SC)n1 as well. label 0

And the next one, NCCOS(=O)(=O)O ? label 0

Now consider CC(C)(N)Cc1ccc(Cl)cc1 and answer again. label 0

Similarly, CC(C)(O)C(Cl)(Cl)Cl ? label 0

Can you check COc1ccc(CN2CCNCC2)c(OC)c1OC next? label 0

Thanks! And COc1cccc([C@@]2(O)CCCC[C@@H]2CN(C)C)c1 ? label 0

What do you have for Cn1c(CCCC(=O)O)nc2cc(N(CCCl)CCCl)ccc21 ? label 0

CC(Cc1ccccc1)NCCn1cnc2c1c(=O)n(C)c(=O)n2C (stereo not given) , same question. label 0

Then this compound: Oc1ccc(Cc2ccc(O)cc2)cc1 label 1

---

Assay: qHTS assay for identifying genotoxic compounds that show differential cytotoxicity against isogenic chicken DT40 cell lines with known DNA damage response pathways - wild type cell line (AID 743012); also: nearly all actives have a fitted effect of over 60% in size
Conditions: DT40 wild type chicken cells viability, CellTiter-Glo, 40 h; series mostly up to 68.4 µM
Excerpt: U.S. Tox21 Program National Center for Advancing Translational Sciences [NCATS] NIH Chemical Genomics Center [NCGC] U.S. Environmental Protection Agency [EPA] National Institutes of Environmental Health Sciences [NIEHS] National Toxicology Program [NTP] U.S. Food and Drug Administration [FDA] Tox21 Assay Overview: DNA repair pathways play a critical role in cellular homeostasis by repairing DNA damage induced by endogenous processes and xenobiotics. […]
Records with an inconclusive call do not appear. Activity calls are given as the source filed them. The call rests on the fitted dose curve; in most records, active means well fitted cell-killing curve with a large enough effect in the repeat runs; inconclusive means weak or mixed curves, or effect the other way; inactive means no such curve, though single readings can be large or run the other way.
Result category, one only: 1 (yes) (active), 0 (no) (inactive)

COMPOUND	CLASS_NAME
CCN(CCO)CCO	0 (no)

Please let me know the test result on file for NCCOS(=O)(=O)O . 0 (no)

Same question for C=C(Cl)CSC(=S)N(CC)CC please. 1 (yes)

Check NNCc1ccccc1 too. 0 (no)

C#CCOC(=O)/C=C(C)/C=C/CC(C)CCCC(C)C (stereo unspecified) ? 0 (no)

What about Nc1c(Cl)c(F)nc(OCC(=O)O)c1Cl ? 0 (no)
